Data origin, for the record: patent US8816055

- systemTested: T1, pKal catalytic domain Mutant 1 (human, UniProt P03952 391-638, limits assumed)
- T1 construct: catalytic domain with His tag from Pichia pastoris
- T1 sequence (P03952 other isoform, or with tags, fused parts or gaps mutant limits assumed): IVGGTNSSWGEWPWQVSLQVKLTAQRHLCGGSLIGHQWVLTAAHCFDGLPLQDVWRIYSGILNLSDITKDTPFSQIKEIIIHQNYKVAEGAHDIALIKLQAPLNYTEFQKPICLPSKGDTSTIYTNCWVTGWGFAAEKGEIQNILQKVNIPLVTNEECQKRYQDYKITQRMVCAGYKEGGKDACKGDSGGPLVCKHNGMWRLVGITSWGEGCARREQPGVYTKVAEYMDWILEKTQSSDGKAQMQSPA
- assayOverview: Ki,app, enzyme inhibition
observable: pKi
// scale note: pKi = -log10(conc_M); give the bare number

Sample records with pKi:
M29-D09 (Fab, V domains shown, also called 559A-M29-D09 (sFab); 559A-M0029-D09) VH: EVQLLESGGGLVQPGGSLRLSCAASGFTFSWYTMVWVRQAPGKGLEWVSYIYPSGGATFYADSVKGRFTISRDNSKNTLYLQMNSLRAEDTAVYYCAMGSYDYIWGFYSDHWGQGTLVTVSS VL: QSALTQPPTVSVSPGQTARITCSGNKLGDKYVAWYQQKPGQSPMLVIYQDTKRPSRVSERFSGSNSANTATLSISGTQALDEADYYCQAWDSSIVIFGGGTRLTVL : 9.57
X115-D01 (antibody, V domains shown, also called 559A-X115-D01; 559A-X0115-D01) VH: EVQLLESGGGLVQPGGSLRLSCAASGFTFSIYSMHWVRQAPGKGLEWVSSIYPSRGMTWYADSVKGRFTISRDNSKNTLYLQMNSLRAEDTAVYYCAYRRTGIPRRDAFDIWGQGTMVTVSS VL: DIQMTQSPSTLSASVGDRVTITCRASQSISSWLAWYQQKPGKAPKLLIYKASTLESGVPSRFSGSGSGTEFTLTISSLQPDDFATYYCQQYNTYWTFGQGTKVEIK : 9.59
M145-D11 (Fab, V domains shown, also called 559A-M145-D11 (sFab); 559A-M0145-D11) VH: EVQLLESGGGLVQPGGSLRLSCAASGFTFSHYRMSWVRQAPGKGLEWVSSIYPSGGRTVYADSVKGRFTISRDNSKNTLYLQMNSLRAEDTAVYYCAKDKFEWRLLFRGIGNDAFDIWGQGTMVTVSS VL: QSVLTQPPSVSVSPGQTASITCSGDKLGDKYTSWYQQRPGQSPVLVIYQDIKRPSGIPERFSGSNSGNTATLTISGTQAMDEADYYCQAWDSPNARVFGSGTKVTVL : 9.64

// below: pKi requested for another binder
Input line: Recorded pKi for X115-A03 (antibody, V domains shown, also called 559A-X115-A03; 559A-X0115-A03) VH: EVQLLESGGGLVQPGGSLRLSCAASGFTFSHYIMMWVRQAPGKGLEWVSGIYSSGGITVYADSVKGRFTISRDNSKNTLYLQMNSLRAEDTAVYYCAWRRIGVPRRDSFDMWGQGTMVTVSS VL: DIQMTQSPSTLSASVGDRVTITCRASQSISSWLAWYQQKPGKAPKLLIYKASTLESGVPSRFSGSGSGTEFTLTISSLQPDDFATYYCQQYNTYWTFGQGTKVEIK , please?
Output line: 9.64
